Target: human Nav1.7 channels (Homo sapiens, UniProt Q15858)
Construct: host or cells: HEK293
Sequence (Q15858 whole entry): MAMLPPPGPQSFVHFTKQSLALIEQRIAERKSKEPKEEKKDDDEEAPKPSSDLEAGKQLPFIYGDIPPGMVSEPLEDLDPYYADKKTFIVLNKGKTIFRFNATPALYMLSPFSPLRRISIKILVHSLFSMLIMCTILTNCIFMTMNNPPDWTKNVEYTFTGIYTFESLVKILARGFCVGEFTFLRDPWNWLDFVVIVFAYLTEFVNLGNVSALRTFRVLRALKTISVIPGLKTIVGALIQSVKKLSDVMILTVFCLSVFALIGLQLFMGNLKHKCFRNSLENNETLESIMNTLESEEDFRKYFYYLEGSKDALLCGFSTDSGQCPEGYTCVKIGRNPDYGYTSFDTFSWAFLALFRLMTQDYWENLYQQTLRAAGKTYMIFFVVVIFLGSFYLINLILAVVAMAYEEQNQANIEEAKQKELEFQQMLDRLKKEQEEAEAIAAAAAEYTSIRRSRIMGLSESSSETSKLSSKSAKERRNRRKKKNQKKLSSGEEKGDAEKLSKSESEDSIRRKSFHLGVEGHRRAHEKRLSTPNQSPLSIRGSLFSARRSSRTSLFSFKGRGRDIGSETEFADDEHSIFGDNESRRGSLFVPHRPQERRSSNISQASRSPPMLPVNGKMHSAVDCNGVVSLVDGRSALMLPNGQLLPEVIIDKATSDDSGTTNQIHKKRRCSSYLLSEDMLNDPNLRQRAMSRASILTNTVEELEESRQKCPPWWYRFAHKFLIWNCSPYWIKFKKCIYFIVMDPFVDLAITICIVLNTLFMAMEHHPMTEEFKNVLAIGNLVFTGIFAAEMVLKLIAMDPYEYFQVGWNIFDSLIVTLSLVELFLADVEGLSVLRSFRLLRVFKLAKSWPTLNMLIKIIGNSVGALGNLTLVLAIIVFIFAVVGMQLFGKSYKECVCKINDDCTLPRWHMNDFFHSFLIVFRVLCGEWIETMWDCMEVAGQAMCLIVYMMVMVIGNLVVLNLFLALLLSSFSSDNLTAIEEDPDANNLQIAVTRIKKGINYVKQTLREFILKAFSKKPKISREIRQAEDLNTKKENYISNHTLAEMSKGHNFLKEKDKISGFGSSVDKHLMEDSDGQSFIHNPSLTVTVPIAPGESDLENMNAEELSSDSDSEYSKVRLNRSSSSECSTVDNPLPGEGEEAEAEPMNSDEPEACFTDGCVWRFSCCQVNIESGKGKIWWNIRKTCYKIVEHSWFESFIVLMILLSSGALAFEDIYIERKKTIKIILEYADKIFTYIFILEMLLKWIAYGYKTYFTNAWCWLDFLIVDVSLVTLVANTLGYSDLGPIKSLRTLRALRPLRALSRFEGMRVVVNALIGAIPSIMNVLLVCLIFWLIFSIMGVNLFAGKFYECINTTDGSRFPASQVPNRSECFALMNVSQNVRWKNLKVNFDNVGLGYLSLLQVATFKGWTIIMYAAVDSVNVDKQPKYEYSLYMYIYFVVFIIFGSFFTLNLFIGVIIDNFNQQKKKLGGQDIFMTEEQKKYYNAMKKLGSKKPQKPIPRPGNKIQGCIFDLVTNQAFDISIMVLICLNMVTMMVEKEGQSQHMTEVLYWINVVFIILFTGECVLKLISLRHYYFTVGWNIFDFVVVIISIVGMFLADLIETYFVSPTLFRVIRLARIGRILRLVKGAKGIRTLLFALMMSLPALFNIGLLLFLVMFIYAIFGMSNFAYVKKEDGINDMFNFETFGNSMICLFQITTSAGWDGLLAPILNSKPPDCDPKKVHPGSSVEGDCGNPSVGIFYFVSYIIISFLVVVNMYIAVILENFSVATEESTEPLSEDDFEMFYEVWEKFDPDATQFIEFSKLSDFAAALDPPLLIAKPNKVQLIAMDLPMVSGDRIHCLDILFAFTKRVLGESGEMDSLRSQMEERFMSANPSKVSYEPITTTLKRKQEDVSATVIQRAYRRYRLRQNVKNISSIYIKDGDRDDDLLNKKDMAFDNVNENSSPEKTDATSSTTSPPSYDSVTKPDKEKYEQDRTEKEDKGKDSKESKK
Test: hNav1.7 channel assay, whole cell patch clamp, two-pulse protocol
Type: cell-based
Settings: TP2 (inactivated phase inhibition), HEK293 cells stably expressing human Nav1.7, read-out: Inhibition activity: percent inhibition on the inactivated state of hNav1.7
quantityMeasured: inhibition at 10 µM

Take a look at these entries with their results.
INSERT INTO assay_data (molecule, measurement) VALUES
  ('COc1ccccc1-c1cccc(C(=O)NCc2cccc[n+]2[O-])c1', '70 to 100%'),
  ('O=C(NCc1cccc[n+]1[O-])c1cccc(-c2ccc(F)c(C(F)(F)F)c2)c1', '70 to 100%'),
  ('Cc1cc(-c2cccc(C(=O)NCc3cccc[n+]3[O-])c2)ccc1Cl', '70 to 100%'),
  ('O=C(NCc1cccc[n+]1[O-])c1cccc(-c2cccc(C(F)(F)F)c2)c1', '40 to 70%');

Switching to the query record.
What the record says about O=C(NCc1cccc[n+]1[O-])c1cccc(-c2ccc(Cl)cc2Cl)c1 : inhibition at 10 µM is 70 to 100%
